Measured CC50 of individual entries
Test system: WIL-2NS
measurement-notes: Antiproliferative assay (MTT), WIL-2NS
Type: cell-based
details: Homo sapiens, WIL2-NS, 96 h, read-out: CC50 WIL-2NS
Report the figure in µM without appending any unit label.

Use these answered entries as a reference point.
INSERT INTO results (compound, measured_value) VALUES
  ('O=C(O)/C=C/C(=O)Nc1ccc(-n2nnc3cc(Cl)c(Cl)cc32)cc1', 64),
  ('O=C(CCCC(=O)Nc1ccc(Cn2nnc3cc(Cl)c(Cl)cc32)cc1)Nc1ccc(Cn2nnc3cc(Cl)c(Cl)cc32)cc1', 23),
  ('COc1cccc2c1C(=O)c1c(O)c3c(c(O)c1C2=O)C[C@@](O)(C(=O)CO)C[C@@H]3O[C@H]1C[C@H](N)[C@H](O)[C@H](C)O1 [Doxorubicin, reference compound]', 0.06);

CC50 lookup needed for CC[C@]1(O)C[C@H]2CN(CCc3c([nH]c4ccccc34)[C@@](C(=O)OC)(c3cc4c(cc3OC)N(C=O)[C@H]3[C@@](O)(C(=O)OC)[C@H](OC(C)=O)[C@]5(CC)C=CCN6CC[C@]43[C@@H]65)C2)C1 [Vincristine, reference compound] , thanks.
0.006
